Molecular target: human EP4 (Homo sapiens, UniProt P35408)
Sequence (P35408 whole entry): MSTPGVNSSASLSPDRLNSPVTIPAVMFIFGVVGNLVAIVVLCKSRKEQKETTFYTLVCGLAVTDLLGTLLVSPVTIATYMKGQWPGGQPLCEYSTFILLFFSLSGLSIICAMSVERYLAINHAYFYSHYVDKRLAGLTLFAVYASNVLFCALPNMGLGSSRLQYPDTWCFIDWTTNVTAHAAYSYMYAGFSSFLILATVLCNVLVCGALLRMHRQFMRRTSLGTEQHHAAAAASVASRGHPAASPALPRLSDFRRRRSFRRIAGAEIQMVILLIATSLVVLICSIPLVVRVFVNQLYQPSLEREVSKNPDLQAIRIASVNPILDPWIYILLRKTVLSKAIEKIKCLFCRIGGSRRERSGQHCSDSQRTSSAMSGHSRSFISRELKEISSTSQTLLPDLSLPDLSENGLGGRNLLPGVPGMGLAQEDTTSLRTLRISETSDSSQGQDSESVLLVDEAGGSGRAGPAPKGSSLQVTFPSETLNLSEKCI
Test: In vitro human EP4 functional antagonist activity (PGE2-stimulated cAMP, HTRF, HEK293)
Conditions: HEK293 cells expressing human EP4, EC80 of PGE2; geometric mean ± SD; read-out: IC50, inhibition of PGE2-stimulated cAMP production, human EP4
Experimental: Assays are conducted in recombinant HEK293 cells stably expressing human EP4 receptor. […] The inhibition of PGE2-stimulated cAMP production by EP4 antagonists is measured using HTRF; (Cisbio catalog #62AM4PEB). […] The HTRF signal is detected using an EnVision® plate reader (Perkin-Elmer) to calculate the ratio of fluorescence at 665 nm to 620 nm. […] Results are expressed as the geometric mean±standard deviation; n=number of independent determinations. […]
metric_name: pIC50
// pIC50 here means minus log10 of the molar concentration (mol/L)

Request: What measured pIC50 goes with Cc1ccc(-c2cccc(CO)c2)cc1C(=O)Nc1c(C)ccc(C(=O)O)c1C ?
Response: 8.64

Every entry's value here was drawn from patent US10005721B2.
